The measured values listed here are drawn from patent US5183899A.

Target: angiotensin II receptor (Bos taurus, UniProt P25104)
Construct: An A II receptor membrane fraction was prepared from bovine adrenal cortex; from tissue; host or cells: bovine adrenal cortex, receptor membrane fraction
Sequence (P25104 1-359): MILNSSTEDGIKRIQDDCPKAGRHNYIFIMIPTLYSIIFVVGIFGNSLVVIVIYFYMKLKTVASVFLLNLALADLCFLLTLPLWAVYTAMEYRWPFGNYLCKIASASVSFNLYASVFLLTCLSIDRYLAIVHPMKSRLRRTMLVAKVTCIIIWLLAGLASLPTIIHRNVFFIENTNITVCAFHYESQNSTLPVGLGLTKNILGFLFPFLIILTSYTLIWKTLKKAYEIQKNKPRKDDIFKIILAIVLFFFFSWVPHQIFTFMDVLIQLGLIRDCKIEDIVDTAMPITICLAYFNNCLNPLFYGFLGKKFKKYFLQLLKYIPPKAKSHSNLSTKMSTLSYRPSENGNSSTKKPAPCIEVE
Assay: Inhibition of binding of angiotensin II to angiotensin receptors (125I-angiotensin II binding, receptor membrane fraction from bovine adrenal cortex)
Conditions: 1 × 10^-5 (M), 125I-A II, room temperature, 1 hour
measurementType: inhibition at 10 µM (%)

# inputSmiles, inhibition at 10 µM, %
records = [
    ("CCCCc1cc(C(=O)N2CCN(C(c3ccccc3)c3ccccc3)CC2)nn1Cc1ccc(-c2ccccc2-c2nn[nH]n2)cc1", 89),
    ("CCCCc1cc(C(=O)OC)nn1Cc1ccc(-c2ccccc2-c2nn[nH]n2)cc1", 90),
    ("CCCCc1cc(C(=O)NC(C)C)nn1Cc1ccc(-c2ccccc2-c2nn[nH]n2)cc1", 95),
    ("CCCCc1cc(C(=O)NCCC)nn1Cc1ccc(-c2ccccc2-c2nn[nH]n2)cc1", 99),
    ("CCCCc1cc(C(=O)N2CCC(C(c3ccccc3)c3ccccc3)CC2)nn1Cc1ccc(-c2ccccc2-c2nn[nH]n2)cc1", 88),
    ("CCCCc1cc(C(=O)OCC(F)(F)F)nn1Cc1ccc(-c2ccccc2-c2nn[nH]n2)cc1", 94),
    ("CCCCc1cc(C(=O)N2CCOCC2)nn1Cc1ccc(-c2ccccc2-c2nn[nH]n2)cc1", 97),
]
